tested_target: 45 kDa E. coli NMT (NMT missing the NH2-terminal 39 residues) (Saccharomyces cerevisiae, UniProt P14743)
Construct: S2A lies in the removed part
Sequence (P14743 40-455): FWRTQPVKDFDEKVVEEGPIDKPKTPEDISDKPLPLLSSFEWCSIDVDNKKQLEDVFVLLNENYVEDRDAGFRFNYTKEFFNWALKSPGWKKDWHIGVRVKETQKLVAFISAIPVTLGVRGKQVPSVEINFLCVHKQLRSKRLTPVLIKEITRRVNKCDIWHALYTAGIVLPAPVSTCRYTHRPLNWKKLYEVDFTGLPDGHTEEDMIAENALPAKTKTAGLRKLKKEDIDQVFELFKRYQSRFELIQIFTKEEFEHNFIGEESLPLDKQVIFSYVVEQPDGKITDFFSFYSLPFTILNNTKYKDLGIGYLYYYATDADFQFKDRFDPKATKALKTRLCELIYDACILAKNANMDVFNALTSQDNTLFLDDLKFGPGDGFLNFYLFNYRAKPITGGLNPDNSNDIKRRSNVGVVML
assay_procedure: coupled in vitro assay for NMT activity, 45 kDa E. coli NMT
Assay type: biochemical, S. cerevisiae
condition_summary: peptide substrate, 15 μM myristate; percentage of Vmax with GNAAAARR and myristoyl-CoA
experimental_endpoint: Vmax, 45 kDa E. coli NMT

# example entries with known answers
[
  {
    "seq_string": "GYAAAARR [synthetic octapeptide, one letter amino acid code]",
    "value_measured": "< 2%"
  },
  {
    "seq_string": "GSSKSKPK [synthetic octapeptide substrate, one letter amino acid code]",
    "value_measured": "52%"
  },
  {
    "seq_string": "MGNAAAARR",
    "value_measured": "Not a substrate"
  },
  {
    "seq_string": "GPAAAARR [synthetic octapeptide substrate, one letter amino acid code]",
    "value_measured": "< 2%"
  },
  {
    "seq_string": "GDAAAARR [synthetic octapeptide substrate, one letter amino acid code]",
    "value_measured": "< 2%"
  },
  {
    "seq_string": "ANAAAARR",
    "value_measured": "Not a substrate"
  },
  {
    "seq_string": "GNAADARR [synthetic octapeptide substrate, one letter amino acid code]",
    "value_measured": "< 2%"
  }
]

Now for the sequence whose Vmax, 45 kDa E. coli NMT we want.
Vmax, 45 kDa E. coli NMT lookup needed for ASSKSKPK [synthetic octapeptide, one letter amino acid code] , thanks.
Not a substrate

====

Item-by-item account of Km
tested_target: E. coli-derived S. cerevisiae NMT (Total E. coli NMT) (Saccharomyces cerevisiae, UniProt P14743, S2A)
Construct: intact 53 kDa (codon 2 Ser to Ala from cloning) plus 45 kDa truncated form
Sequence (P14743 1-455 S2A): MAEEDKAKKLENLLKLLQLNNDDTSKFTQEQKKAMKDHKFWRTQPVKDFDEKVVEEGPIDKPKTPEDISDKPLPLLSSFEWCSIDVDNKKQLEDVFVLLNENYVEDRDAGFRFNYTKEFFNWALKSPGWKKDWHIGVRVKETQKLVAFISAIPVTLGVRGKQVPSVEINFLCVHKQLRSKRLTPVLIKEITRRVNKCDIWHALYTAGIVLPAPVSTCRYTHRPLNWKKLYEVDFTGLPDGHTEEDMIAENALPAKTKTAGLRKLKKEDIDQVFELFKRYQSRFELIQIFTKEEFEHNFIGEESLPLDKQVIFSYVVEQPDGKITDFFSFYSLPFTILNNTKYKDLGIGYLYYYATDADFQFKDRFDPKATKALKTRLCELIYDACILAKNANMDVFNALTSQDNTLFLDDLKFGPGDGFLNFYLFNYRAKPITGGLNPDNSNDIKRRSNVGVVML
assay_procedure: coupled in vitro assay for NMT activity, Total E. coli NMT
Type: biochemical
condition_summary: peptide substrate varied, 15 μM myristate
Answer with a number only, understood to be in µM.

[
  {
    "seq_string": "GSSKSKPK [synthetic octapeptide substrate, one letter amino acid code]",
    "value_units": "µM",
    "Km": 48.5
  },
  {
    "seq_string": "GPAAAARR [synthetic octapeptide substrate, one letter amino acid code]",
    "value_units": "µM",
    "Km": 7100
  }
]

Look up Km for this sequence: GSAAAARR [synthetic octapeptide substrate, one letter amino acid code]
697

What about this sequence? GNAADARR [synthetic octapeptide substrate, one letter amino acid code]
503

Do the same for GDAAAARR [synthetic octapeptide substrate, one letter amino acid code] please
645

Further, for GSAASARR [synthetic octapeptide substrate, one letter amino acid code] ?
2.1

====

tested_target: Yeast NMT (partially purified from S. cerevisiae) (Saccharomyces cerevisiae, UniProt P14743)
Sequence (P14743 1-455): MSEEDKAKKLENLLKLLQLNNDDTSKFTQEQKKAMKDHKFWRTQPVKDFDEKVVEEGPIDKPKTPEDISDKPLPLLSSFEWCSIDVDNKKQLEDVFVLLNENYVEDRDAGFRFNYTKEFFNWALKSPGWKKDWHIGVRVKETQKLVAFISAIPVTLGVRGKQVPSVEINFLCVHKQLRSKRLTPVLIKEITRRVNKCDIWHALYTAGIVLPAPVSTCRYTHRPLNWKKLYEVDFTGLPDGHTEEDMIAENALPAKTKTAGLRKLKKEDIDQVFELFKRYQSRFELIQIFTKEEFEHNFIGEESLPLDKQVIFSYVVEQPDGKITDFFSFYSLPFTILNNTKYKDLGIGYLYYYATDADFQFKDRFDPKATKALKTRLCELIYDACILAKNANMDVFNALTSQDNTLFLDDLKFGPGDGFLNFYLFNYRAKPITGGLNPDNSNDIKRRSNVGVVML
assay_procedure: coupled in vitro assay for NMT activity, Yeast NMT
Assay type: biochemical
condition_summary: peptide substrate, 15 μM myristate; percentage of Vmax with GNAAAARR and myristoyl-CoA
experimental_endpoint: Vmax, Yeast NMT

Some sequences with recorded Vmax, Yeast NMT:
[
  {
    "seq_string": "MGNAAAARR",
    "Vmax, Yeast NMT": "Not a substrate"
  },
  {
    "seq_string": "GPAAAARR [synthetic octapeptide substrate, one letter amino acid code]",
    "Vmax, Yeast NMT": "< 2%"
  },
  {
    "seq_string": "GSAASARR [synthetic octapeptide substrate, one letter amino acid code]",
    "Vmax, Yeast NMT": "34%"
  },
  {
    "seq_string": "ANAAAARR",
    "Vmax, Yeast NMT": "Not a substrate"
  },
  {
    "seq_string": "GYAAAARR [synthetic octapeptide, one letter amino acid code]",
    "Vmax, Yeast NMT": "Not a substrate"
  }
]

For the sequence GNAADARR [synthetic octapeptide substrate, one letter amino acid code] , what Vmax, Yeast NMT is on record?
< 2%

Same lookup for GDAAAARR [synthetic octapeptide substrate, one letter amino acid code] , please.
< 2%

====

tested_target: E. coli-derived S. cerevisiae NMT (Total E. coli NMT) (Saccharomyces cerevisiae, UniProt P14743, S2A)
Construct: intact 53 kDa (codon 2 Ser to Ala from cloning) plus 45 kDa truncated form
Sequence (P14743 1-455 S2A): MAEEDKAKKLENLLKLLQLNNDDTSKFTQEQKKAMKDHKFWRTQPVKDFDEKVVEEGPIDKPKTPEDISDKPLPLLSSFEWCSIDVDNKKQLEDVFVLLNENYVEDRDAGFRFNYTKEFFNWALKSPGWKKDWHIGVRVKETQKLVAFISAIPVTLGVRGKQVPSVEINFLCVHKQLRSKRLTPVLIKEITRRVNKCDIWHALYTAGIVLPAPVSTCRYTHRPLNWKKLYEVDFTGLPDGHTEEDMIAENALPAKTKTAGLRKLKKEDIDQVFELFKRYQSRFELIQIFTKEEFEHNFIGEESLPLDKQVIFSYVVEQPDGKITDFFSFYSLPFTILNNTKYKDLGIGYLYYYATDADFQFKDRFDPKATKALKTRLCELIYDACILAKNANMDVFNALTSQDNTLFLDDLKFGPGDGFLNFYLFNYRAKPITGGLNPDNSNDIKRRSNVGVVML
assay_procedure: coupled in vitro assay for NMT activity, Total E. coli NMT
Format: biochemical
condition_summary: peptide substrate, 15 μM myristate; percentage of Vmax with GNAAAARR and myristoyl-CoA
experimental_endpoint: Vmax, Total E. coli NMT

[
  {
    "seq_string": "ANAAAARR",
    "experimental_endpoint": "Vmax, Total E. coli NMT",
    "value_measured": "Not a substrate"
  },
  {
    "seq_string": "ASSKSKPK [synthetic octapeptide, one letter amino acid code]",
    "experimental_endpoint": "Vmax, Total E. coli NMT",
    "value_measured": "Not a substrate"
  },
  {
    "seq_string": "GYAAAARR [synthetic octapeptide, one letter amino acid code]",
    "experimental_endpoint": "Vmax, Total E. coli NMT",
    "value_measured": "< 2%"
  },
  {
    "seq_string": "MGNAAAARR",
    "experimental_endpoint": "Vmax, Total E. coli NMT",
    "value_measured": "Not a substrate"
  }
]
